target: Neu5Ac(a2-3)Gal(b1-4)[Fuc(a1-3)]GlcNAc; test: glycan array binding signal (z-score within array); higher = stronger binding; conditions: glycan notation: IUPAC condensed, linker removed
The entries come from a sample that favours the strongest signals as a whole.
VALUE TYPE: glycan array binding signal (z-score)

binder="Erv41-EDTA (Saccharomyces cerevisiae), Q04651 (protein) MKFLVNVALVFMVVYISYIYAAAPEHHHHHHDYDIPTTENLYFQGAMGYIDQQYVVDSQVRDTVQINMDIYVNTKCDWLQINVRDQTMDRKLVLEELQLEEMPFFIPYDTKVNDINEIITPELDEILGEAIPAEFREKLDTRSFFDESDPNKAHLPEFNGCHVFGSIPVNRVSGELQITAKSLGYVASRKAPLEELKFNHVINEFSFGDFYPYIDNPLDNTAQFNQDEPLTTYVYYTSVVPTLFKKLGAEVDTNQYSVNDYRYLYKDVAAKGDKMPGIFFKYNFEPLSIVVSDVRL" value_type="glycan array binding signal (z-score)" value_measured=0.162
